Tested on: ATP;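 also: ATP exposure 15 min at 22 °C before imaging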
Assay: switch fluorescence ratio, 500 uM ATP over buffer (Cy3 cluster intensity, sum of 5 cycles each) (fold (ratio)); higher = stronger signal-on switching upon ATP binding; sequences stand for … in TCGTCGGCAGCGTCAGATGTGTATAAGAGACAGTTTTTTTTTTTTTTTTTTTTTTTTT…TC
Conditions: aptamer strand: ATP DNA aptamer (quencher-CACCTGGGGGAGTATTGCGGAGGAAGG + anchor), 100 nM annealed; ATP concentration: 500 uM
measured-property: switch fluorescence ratio

INSERT INTO measurements (input_sequence, measured_property, reported_value) VALUES
  ('TTACAGGCCT', 'switch fluorescence ratio', 1.05),
  ('TAAAGAAGAG', 'switch fluorescence ratio', 0.977),
  ('AAATTTAGCT', 'switch fluorescence ratio', 1.03),
  ('GGTTTACGGC', 'switch fluorescence ratio', 1),
  ('AGGGTAGTGC', 'switch fluorescence ratio', 0.987),
  ('CATCGTTTTT', 'switch fluorescence ratio', 1.02),
  ('TGGGGGTGTT', 'switch fluorescence ratio', 1),
  ('GGGGGGTGTC', 'switch fluorescence ratio', 1.01),
  ('CTACGAAGGG', 'switch fluorescence ratio', 1.04),
  ('TAGCCTTAGA', 'switch fluorescence ratio', 0.983),
  ('GCTAGAAGCG', 'switch fluorescence ratio', 1),
  ('TTGTGGTGGG', 'switch fluorescence ratio', 1.03),
  ('GTGTCAACGT', 'switch fluorescence ratio', 0.978),
  ('AATAAAAATG', 'switch fluorescence ratio', 1.02),
  ('AGCAATCGGT', 'switch fluorescence ratio', 1.6),
  ('ATGTGAGAAT', 'switch fluorescence ratio', 0.998),
  ('TGAGTTTCGG', 'switch fluorescence ratio', 0.987),
  ('TTTTGCCATT', 'switch fluorescence ratio', 0.999),
  ('CAATATGCCG', 'switch fluorescence ratio', 0.968),
  ('TCGAGTAAGG', 'switch fluorescence ratio', 1.18);

====

Tested on: ATP;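 also: ATP exposure 15 min at 22 °C before imaging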
Test: switch fluorescence ratio, 500 uM ATP over buffer (Cy3 cluster intensity, sum of 5 cycles each) (fold (ratio)); higher = stronger signal-on switching upon ATP binding; sequences stand for … in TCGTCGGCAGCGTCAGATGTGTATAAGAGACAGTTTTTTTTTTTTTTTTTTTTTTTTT…TC
Conditions: aptamer strand: ATP DNA aptamer (quencher-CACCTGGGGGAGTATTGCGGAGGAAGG + anchor), 100 nM annealed; ATP concentration: 500 uM
measured-property: switch fluorescence ratio

INSERT INTO measurements (input_sequence, reported_value) VALUES
  ('GTGGACCTGA', 1.07),
  ('TTTAAACGTA', 0.983),
  ('ATTAATATGG', 1.02),
  ('TTACATAGGG', 1.02),
  ('TGCTCGGATG', 0.993),
  ('ATTTTATCAG', 1.02),
  ('CCATTCTTCG', 1.08),
  ('CTAAAGTGTG', 0.986),
  ('CGTTATTTTT', 1.02),
  ('GTAGGGCGGG', 0.979),
  ('GAAGATGAGG', 1),
  ('CATTAGTTGT', 1.02),
  ('TTGGTACTGC', 1.03),
  ('TCAAGTGCAG', 0.99),
  ('CAAATTAGGG', 0.971),
  ('TCGTCGTAGG', 1.01),
  ('GGTAAATATT', 0.998),
  ('TTTTTGCCGG', 1.01),
  ('GTTGTAGTCG', 1.02),
  ('TATGTTTCTA', 1);
